# Tested on: Fibroblast
# assay.comment: Multiplex assay against human fibroblast
# Format: toxicity, cell-based
# experimental.conditions: 12 h, 10 µM, compound concentration 10 uM, replicate 1
measure.name: Population Mitochondria Different-Phenotype (%)
Give the number first and the unit second.

Examples with answers:
# compound, measured.value
records = [
    ("COc1cc(C(=O)N2CC[C@@H](O)[C@@H](N)C2)cc2nc(-c3cc4ccccc4n3CC3CC3)n(C)c12.Cl", "34%"),
    ("OCCCNc1cc(-c2ccnc(Nc3cccc(Cl)c3)n2)ccn1", "25%"),
    ("Cc1c(Cc2ccc3ccccc3n2)c2cc(F)ccc2n1CC(=O)O", "7%"),
    ("CCc1nn2c(C)cc(C)nc2c1Cc1ccc(-c2nnc(C3CCNCC3)o2)cc1", "19%"),
    ("Nc1nc(CC(=O)Nc2ccc(CCNC[C@H](O)c3ccccc3)cc2)cs1", "4%"),
    ("CN1CCN2c3ccccc3Cc3ccccc3C2C1.Cl (stereo not drawn) [MIANSERIN HYDROCHLORIDE]", "3%"),
    ("C[C@@H]1CC(=O)Nc2cccc(-c3ccc4c(c3)c(-c3cnn(C)c3)nn4C)c2N1", "19%"),
    ("CN(C)C(=O)Cn1cc(-c2ccc(-c3nnc4ccccn34)cc2)cn1", "6%"),
    ("Cc1nn(C)c2nc(NNC(=O)Nc3cc(Cl)nc(Cl)c3)cc(C(C)C)c12", "15%"),
    ("COc1cc(Nc2ncc3c(n2)-c2ccc(Cl)cc2C(c2c(F)cccc2OC)=NC3)ccc1C(=O)O", "22%"),
]

Record Population Mitochondria Different-Phenotype (%) per entry; entries follow.
1. O=C(O)CCC/C=C\CC1C(O)CC(O)C1/C=C/C(O)COc1cccc(Cl)c1 (stereo not drawn)
2. O=c1ccc2ccc(OCCCCN3CCN(c4cccc5sccc45)CC3)cc2[nH]1
3. CN1C[C@H](C(=O)N[C@]2(C)O[C@@]3(O)[C@@H]4CCCN4C(=O)[C@H](Cc4ccccc4)N3C2=O)C[C@@H]2c3cccc4[nH]cc(c34)C[C@H]21.CS(=O)(=O)O [DIHYDROERGOTAMINE MESYLATE]
4. COc1c(Nc2ccc(S(C)(=O)=O)nc2C)ncnc1OC1CCN(C(=O)OC(C)C)CC1

-- reply
1: 4%; 2: 39%; 3: 5%; 4: 15%

====

# Tested on: U2OS
# assay.comment: Multiplex assay against U2OS
# Format: toxicity, cell-based
# experimental.conditions: human, 48 h, 10 µM, compound concentration 10 uM, replicate 2
Class Y: Population Mitotic Cells (%) at least 5%. Class N: Population Mitotic Cells (%) below 5%.

Sample answers from the record:
# compound, assigned.category
data = [
    ("Cc1cc(O)c(-c2ccc([C@@H](C)CN(C)C)cc2)c2c1[nH]c(=O)c1sccc12", "N"),
    ("CN1C[C@H](C(=O)N[C@]2(C)O[C@@]3(O)[C@@H]4CCCN4C(=O)[C@H](Cc4ccccc4)N3C2=O)C[C@@H]2c3cccc4[nH]cc(c34)C[C@H]21.CS(=O)(=O)O [DIHYDROERGOTAMINE MESYLATE]", "N"),
    ("CSc1nc(NC2CCCC2)c([N+](=O)[O-])c(NC2CCCC2)n1 [GS-39783]", "Y"),
    ("O=c1nc2[nH]c3ccccc3nc-2c(=O)[nH]1 [ALLOXAZINE]", "Y"),
    ("Cc1nn(C)c2nc(NNC(=O)Nc3cc(Cl)nc(Cl)c3)cc(C(C)C)c12", "Y"),
]

-- ask // inclusive: Population Mitotic Cells (%) at least 5%? input: COCCn1c(C)c(C)s/c1=N\C(=O)C1C(C)(C)C1(C)C
-- reply N

-- ask // inclusive: Population Mitotic Cells (%) at least 5%? input: Cc1cc(=O)n(C)c2cc(N3C(=O)CC[C@H](NS(=O)(=O)CC(C)C)[C@H]3c3ccc(Cl)cc3)ccc12
-- reply Y

-- ask // inclusive: Population Mitotic Cells (%) at least 5%? input: CC(C)(O)C(=O)N1CCN(c2ccc(C(F)(F)F)c(C3=C(c4c[nH]c5ccccc45)C(=O)NC3=O)c2)CC1
-- reply N

-- ask // inclusive: Population Mitotic Cells (%) at least 5%? input: COc1c(Nc2ccc(S(C)(=O)=O)nc2C)ncnc1OC1CCN(C(=O)OC(C)C)CC1 [ADP-597]
-- reply Y

====

# System: HEK-293T
# assay.comment: Multiplex assay against HEK293T
# Assay type: toxicity, cell-based
# experimental.conditions: human, 12 h, 10 µM, compound concentration 10 uM, replicate 2
Field: Population Mitotic Cells (%). Provide a value for each of the molecules that follow.
Give bare numbers, in %.

# molecule, unit.annotation, Population Mitotic Cells (%)
records = [
    ("CN1C[C@H](C(=O)N[C@]2(C)O[C@@]3(O)[C@@H]4CCCN4C(=O)[C@H](Cc4ccccc4)N3C2=O)C[C@@H]2c3cccc4[nH]cc(c34)C[C@H]21.CS(=O)(=O)O [DIHYDROERGOTAMINE MESYLATE]", "%", 46),
    ("COc1cc2nc(N3CCN(C(=O)c4ccco4)CC3)nc(N)c2cc1OC.Cl [PRAZOSIN HYDROCHLORIDE]", "%", 44),
    ("COc1ccc2[nH]c(I)c(CCNC(C)=O)c2c1 [IODOMELATONIN]", "%", 53),
]

Next molecule, please.
-- ask Determine its reported Population Mitotic Cells (%): Nc1nc(CC(=O)Nc2ccc(CCNC[C@H](O)c3ccccc3)cc2)cs1 [MIRABEGRON]
-- reply 56

====

# System: HEK-293T
# assay.comment: Multiplex assay against HEK293T
# Type: toxicity, cell-based
# experimental.conditions: human, 48 h, 1 µM, compound concentration 1 uM, replicate 2
Non-standard residues stand in square brackets, D forms with d. Residues, ends and D or L forms follow the SMILES beside them.
Class true (1): Population Mitochondria Different-Phenotype (%) at least 20%. Class false (0): Population Mitochondria Different-Phenotype (%) below 20%.

Sample answers from the record:
# compound, assigned.category
records = [
    ("CC(C)C[C@@H]1NC(=O)[C@@H](C(C)C)NC(=O)[C@@H]2CCCN2C(=O)[C@@H](CC(=O)O)NC(=O)[C@@H](Cc2c[nH]c3ccccc23)NC1=O [BQ-123] (cyclo(L[dW][dD]P[dV]))", "false (0)"),
    ("CC(C)(O)C(=O)N1CCN(c2ccc(C(F)(F)F)c(C3=C(c4c[nH]c5ccccc45)C(=O)NC3=O)c2)CC1", "true (1)"),
    ("O=C(Nc1cc(-c2ccccc2)nn1-c1ccccc1F)c1ccc([N+](=O)[O-])cc1", "false (0)"),
    ("CN1CCC(C(=O)c2cccc(NC(=O)c3c(F)cc(F)cc3F)n2)CC1", "true (1)"),
    ("COC(c1ccccc1)(c1ccccc1)[C@H](Oc1nc(C)cc(C)n1)C(=O)O", "true (1)"),
]

-- ask // inclusive: Population Mitochondria Different-Phenotype (%) at least 20%? input: CN1CCN2c3ccccc3Cc3ccccc3C2C1.Cl (configuration not stated) [MIANSERIN HYDROCHLORIDE]
-- reply false (0)

-- ask // inclusive: Population Mitochondria Different-Phenotype (%) at least 20%? input: C=CCN1C[C@H](C(=O)N(CCCN(C)C)C(=O)NCC)C[C@@H]2c3cccc4[nH]cc(c34)C[C@H]21
-- reply true (1)

====

# Test system: HEK-293T
# assay.comment: Multiplex assay against HEK293T
# Type: toxicity, cell-based
# experimental.conditions: human, 24 h, 10 µM, compound concentration 10 uM, replicate 1
Non-standard residues stand in square brackets, D forms with d. Residues, ends and D or L forms follow the SMILES beside them.
Field: Total Cell Count. Provide a value for each of the compounds that follow.
Numbers only.

Examples with answers:
# compound, Total Cell Count
records = [
    ("CC(C)C[C@@H]1NC(=O)[C@@H](C(C)C)NC(=O)[C@@H]2CCCN2C(=O)[C@@H](CC(=O)O)NC(=O)[C@@H](Cc2c[nH]c3ccccc23)NC1=O [BQ-123] (cyclo(L[dW][dD]P[dV]))", 511),
    ("Cc1sc2c(c1C)C(c1ccc(Cl)cc1)=N[C@H](CC(=O)OC(C)(C)C)c1nnc(C)n1-2", 468),
    ("CC(F)(F)CN1CCOc2c(nn(-c3ccccc3Cl)c2-c2ccc(Cl)cc2)C1=O", 450),
]

-- ask Determine its reported Total Cell Count: C[C@H](NC(=O)CNC(=O)c1cccc(Cl)c1)c1ccccc1
-- reply 505

====

Field: Population Fragmented Nuclei (%). Provide a value for each of the molecules that follow.
# System: U2OS
# assay.comment: Multiplex assay against U2OS
# Assay type: toxicity, cell-based
# experimental.conditions: human, 24 h, 1 µM, compound concentration 1 uM, replicate 2
Non-standard residues stand in square brackets, D forms with d. Residues, ends and D or L forms follow the SMILES beside them.
Answers are plain numbers, in %.

# molecule, Population Fragmented Nuclei (%)
rows = [
    ("CC(C)C[C@@H]1NC(=O)[C@@H](C(C)C)NC(=O)[C@@H]2CCCN2C(=O)[C@@H](CC(=O)O)NC(=O)[C@@H](Cc2c[nH]c3ccccc23)NC1=O [BQ-123] (cyclo(L[dW][dD]P[dV]))", 11),
    ("COc1ccc2[nH]c(I)c(CCNC(C)=O)c2c1 [IODOMELATONIN]", 15),
    ("CC(C)(O)C(=O)N1CCN(c2ccc(C(F)(F)F)c(C3=C(c4c[nH]c5ccccc45)C(=O)NC3=O)c2)CC1", 22),
]

Record Population Fragmented Nuclei (%) per entry; entries follow.
1. CN1CCN(c2ccc(Nc3c4ccccc4nc4ccccc34)cc2)CC1.Cl.Cl.O
2. Cn1cc(C(=O)OCC2CCN(CCNS(C)(=O)=O)CC2)c2ccccc21
3. OCCCNc1cc(-c2ccnc(Nc3cccc(Cl)c3)n2)ccn1
4. O=C(NCCNCC(O)COc1ccc(O)cc1)N1CCOCC1.O=C(NCCNCC(O)COc1ccc(O)cc1)N1CCOCC1.O=C(O)/C=C/C(=O)O (stereo not given) [XAMOTEROL FUMARATE]
5. CN(C)C(=O)Cn1cc(-c2ccc(-c3nnc4ccccn34)cc2)cn1
6. CCc1nn2c(C)cc(C)nc2c1Cc1ccc(-c2nnc(C3CCNCC3)o2)cc1
7. CC(C)(C)c1ccc(CSc2cnn(C(C)(C)C)c(=O)c2Cl)cc1 [PYRIDABEN]
8. O=C(O)CCC/C=C\CC1C(O)CC(O)C1/C=C/C(O)COc1cccc(Cl)c1 (stereo not given) [CLOPROSTENOL]

-- reply
[29, 17, 40, 18, 17, 13, 19, 15]

Record Population Fragmented Nuclei (%) per entry; entries follow.
1. CN1CCN2c3ccccc3Cc3ccccc3C2C1.Cl (stereo not given) [MIANSERIN HYDROCHLORIDE]
2. CN1CCC(C(=O)c2cccc(NC(=O)c3c(F)cc(F)cc3F)n2)CC1

-- reply
1: 23; 2: 18
